Molecular target: human TLR9 (Homo sapiens)
Sequence (Q9NR96 26-1032): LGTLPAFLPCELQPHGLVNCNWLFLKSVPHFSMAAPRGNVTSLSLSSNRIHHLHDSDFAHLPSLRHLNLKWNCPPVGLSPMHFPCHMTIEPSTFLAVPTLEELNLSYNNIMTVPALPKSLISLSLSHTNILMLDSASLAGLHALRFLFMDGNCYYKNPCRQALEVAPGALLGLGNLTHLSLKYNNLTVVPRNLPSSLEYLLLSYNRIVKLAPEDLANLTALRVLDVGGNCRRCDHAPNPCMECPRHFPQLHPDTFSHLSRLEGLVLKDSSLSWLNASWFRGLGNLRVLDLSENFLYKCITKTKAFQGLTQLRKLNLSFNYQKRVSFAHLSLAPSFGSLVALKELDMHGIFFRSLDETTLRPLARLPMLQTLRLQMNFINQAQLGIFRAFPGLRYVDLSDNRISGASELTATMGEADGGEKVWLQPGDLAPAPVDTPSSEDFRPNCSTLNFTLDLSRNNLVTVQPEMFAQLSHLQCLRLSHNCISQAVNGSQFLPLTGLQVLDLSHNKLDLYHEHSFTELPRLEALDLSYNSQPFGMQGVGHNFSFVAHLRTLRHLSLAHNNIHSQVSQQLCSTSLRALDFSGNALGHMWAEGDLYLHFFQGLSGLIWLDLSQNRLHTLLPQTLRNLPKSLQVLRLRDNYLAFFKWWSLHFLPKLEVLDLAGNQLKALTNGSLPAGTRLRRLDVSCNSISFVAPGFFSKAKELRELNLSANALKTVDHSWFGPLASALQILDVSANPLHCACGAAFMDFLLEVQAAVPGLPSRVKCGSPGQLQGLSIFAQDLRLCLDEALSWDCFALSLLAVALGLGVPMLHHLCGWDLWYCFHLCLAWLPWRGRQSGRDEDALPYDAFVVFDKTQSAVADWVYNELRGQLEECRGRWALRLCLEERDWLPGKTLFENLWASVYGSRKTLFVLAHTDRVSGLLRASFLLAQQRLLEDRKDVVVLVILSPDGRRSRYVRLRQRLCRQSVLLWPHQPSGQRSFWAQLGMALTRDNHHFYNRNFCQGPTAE
Experiment: TLR9 inhibition reporter assay (HEK-Blue SEAP reporter, ODN2006 stimulation)
Details: HEK-Blue cells overexpressing human TLR9, SEAP reporter, ODN2006 5 nM, 22 hour incubation
pIC50: −log10 of the molar value.
Items are presented alongside their recorded pIC50.
Measured Parameter: pIC50

INSERT INTO measurements (compound, measured_parameter, result_number) VALUES
  ('Cc1cc(-c2[nH]c3ccc(C4CCN(CC(C)(C)O)CC4)cc3c2C(C)C)nn(C)c1=O', 'pIC50', 5.50),
  ('CN[C@H](C)C(=O)N1CCC(c2ccc3[nH]c(-c4cc(C)c(=O)n(C)c4)c(C(C)C)c3c2)CC1', 'pIC50', 6.30),
  ('COCCn1cc(-c2[nH]c3ccc(C4CCN(CC(C)C)CC4)cc3c2C(C)C)cc(C)c1=O', 'pIC50', 5.28),
  ('COCc1cc(-c2[nH]c3ccc(C4CCN(CC(C)(C)O)CC4)cc3c2C(C)C)cn(C)c1=O', 'pIC50', 5.14),
  ('Cc1cc(-c2[nH]c3ccc(C4CCN(C5CCOC5)CC4)cc3c2C(C)C)cn(C)c1=O (centres unmarked)', 'pIC50', 5.24),
  ('Cc1cc(-c2[nH]c3ccc(C4CCNCC4)cc3c2C(C)C)cn(CC(F)(F)F)c1=O', 'pIC50', 5.33),
  ('CNCCN1CCC(c2ccc3[nH]c(-c4ccc(=O)n(C)c4)c(C(C)C)c3c2)CC1', 'pIC50', 6.82),
  ('CCCN1CCC(c2ccc3[nH]c(-c4cc(-c5cnc(C)nc5)c(=O)n(C)c4)c(C(C)C)c3c2)CC1', 'pIC50', 5.60);
